Data credit: ChEMBL document CHEMBL4020815

TARGET_ENTITY: C-1-tetrahydrofolate synthase, cytoplasmic (Homo sapiens, UniProt P11586)
Sequence (P11586 whole entry): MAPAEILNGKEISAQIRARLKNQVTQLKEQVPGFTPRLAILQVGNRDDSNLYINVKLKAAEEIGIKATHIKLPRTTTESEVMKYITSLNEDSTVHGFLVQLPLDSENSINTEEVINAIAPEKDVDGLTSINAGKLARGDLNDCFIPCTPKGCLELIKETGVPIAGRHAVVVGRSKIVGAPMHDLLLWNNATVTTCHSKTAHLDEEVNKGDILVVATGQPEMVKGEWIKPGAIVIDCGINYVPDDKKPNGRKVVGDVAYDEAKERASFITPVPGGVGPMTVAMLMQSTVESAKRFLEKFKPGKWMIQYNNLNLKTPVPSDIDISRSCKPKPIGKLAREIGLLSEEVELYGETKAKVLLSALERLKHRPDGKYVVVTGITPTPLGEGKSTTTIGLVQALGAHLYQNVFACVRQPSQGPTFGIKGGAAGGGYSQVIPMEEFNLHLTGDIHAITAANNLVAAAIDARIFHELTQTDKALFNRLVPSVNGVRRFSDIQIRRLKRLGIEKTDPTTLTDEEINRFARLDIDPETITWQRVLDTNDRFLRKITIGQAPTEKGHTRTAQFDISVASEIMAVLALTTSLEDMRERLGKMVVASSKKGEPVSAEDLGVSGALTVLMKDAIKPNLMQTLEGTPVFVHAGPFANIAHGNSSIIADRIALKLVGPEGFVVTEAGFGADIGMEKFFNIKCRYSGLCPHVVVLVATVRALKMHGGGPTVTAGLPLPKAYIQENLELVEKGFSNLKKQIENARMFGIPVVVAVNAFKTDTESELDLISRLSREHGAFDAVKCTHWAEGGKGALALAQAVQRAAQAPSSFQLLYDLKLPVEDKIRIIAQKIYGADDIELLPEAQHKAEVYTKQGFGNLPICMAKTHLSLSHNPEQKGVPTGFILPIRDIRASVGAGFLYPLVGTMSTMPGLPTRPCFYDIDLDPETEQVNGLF
READOUT_NAME: IC50

>>> assay_value("O=c1[nH]ccc2cc(F)c(NS(=O)(=O)c3ccc(N4CC[C@@H](O)C4)s3)cc12")
"> 100 µM"

====

TEST_DETAILS: Clearance in CD-1 mouse at 1 mg/kg, iv by LC-MS/MS method
Type: ADME, organism-based
COND: in vivo
Listed below: clearance values for each entry.
READOUT_NAME: clearance (mL/min/kg)

>>> assay_value("N#Cc1ccc(S(=O)(=O)Nc2cc3c(=O)[nH]ccc3cc2F)cc1")
2.34
>>> assay_value("N#Cc1ccc(S(=O)(=O)Nc2ccc3cc[nH]c(=O)c3c2)cc1")
4.47
